Entry source: patent US20220289830A1

- TEST TARGET: native PcrV on live Pseudomonas aeruginosa (strains O6-57/66, O11-PA103, O1-52/66, O16-177/81) (Pseudomonas aeruginosa)
- TEST: cell-based or functional assay
MEASURE NAME: RBC lysis Average IC50 over the three strains

Check out these entries, answers already filled in.
I would be grateful if you could share the reported RBC lysis Average IC50 over the three strains for 7C1 (antibody, V domains shown, also called optimized anti-PcrV mAb clone 7C1) VH: EVQLLESGGGLVQPGGSLRLSCTASGFTFSDNHMSWVRQAPGKGLDWVSGISESGGSTNYADSVKGRFSTSRDNSKSTLYLDMNSLRAEDTAIYYCAKGRFSTSSSHFYRAVYGMDVWGQGTAVTVSS VL: DIQLTQSPSSLSASVGDRVTITCRASQGISSYLAWYQQKPGKAPKLLIYAASTLQSGVPSRFSGSGSGTDFTLTISSLQPEDFATYYCQQLSSYPLSFGGGTKVEIK .
0.195 µg/mL

I would be grateful if you could share the reported RBC lysis Average IC50 over the three strains for 13-42 mAb (antibody, V domains shown) VH: EVQLLESGGGLVQPGGSLRLSCTASGFTFSDYPMSWVRQAPGKGLDWVSGISESGGSTNDADSVKGRFSTSRDNSKSTLYLDMNSLRAEDTAIYYCAKGRFCTNSSCFFRAVYGMDVWGQGTAVTVSS VL: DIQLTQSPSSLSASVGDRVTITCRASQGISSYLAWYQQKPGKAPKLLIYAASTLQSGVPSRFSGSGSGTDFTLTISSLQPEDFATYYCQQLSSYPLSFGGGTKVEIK .
0.355 µg/mL

I would be grateful if you could share the reported RBC lysis Average IC50 over the three strains for 8C1 (antibody, V domains shown, also called optimized anti-PcrV mAb clone 8C1) VH: EVQLLESGGGLVQPGGSLRLSCTASGFTFSDNHMSWVRQAPGKGLDWVSGISESGGSTNYADSVKGRFSTSRDNSKSTLYLDMNSLRAEDTAIYYCAKGRFSTNSAHFFRAVYGMDVWGQGTAVTVSS VL: DIQLTQSPSSLSASVGDRVTITCRASQGISSYLAWYQQKPGKAPKLLIYAASTLQSGVPSRFSGSGSGTDFTLTISSLQPEDFATYYCQQLSSYPLTFGGGTKVEIK .
0.266 µg/mL

Continue with the binder presented below.
I would be grateful if you could share the reported RBC lysis Average IC50 over the three strains for 7B1 (antibody, V domains shown, also called 7B1-IgG1; 7B1 mAb) VH: EVQLLESGGGLVQPGGSLRLSCTASGFTFSDNYMSWVRQAPGKGLDWVSVISESGGSTNYADSVKGRFSTSRDNSKSTLYLDMNSLRAEDTAIYYCAKGRFSTLSSHFFRAVYGMDVWGQGTAVTVSS VL: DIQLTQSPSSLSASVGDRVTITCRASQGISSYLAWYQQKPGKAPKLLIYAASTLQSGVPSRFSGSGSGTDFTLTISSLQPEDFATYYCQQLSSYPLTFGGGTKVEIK .
0.214 µg/mL
